# System: Rap guanine nucleotide exchange factor 3 (Homo sapiens)
# Protocol notes: Confirmatory qHTS for antagonist of cAMP-regulated guanine nucleotide exchange factor 3 (EPAC1) (AID 1645880); note: nearly all actives have a fitted effect of over 55% in size
# Test parameters: EPAC1 Rap1B-BODIPY-GDP exchange, fluorescence
Records with an inconclusive call do not appear. Activity calls are given as the source filed them. Calls come from the whole dose curve; as a rule, active = well fitted inhibition curve with a large enough effect; inconclusive = small, poorly fitted or top-dose-only effect; inactive = no such curve, though single readings can be large or run the other way.
# valid calls are active, inactive; nothing else

Observe how each entry below is paired with its result.
>>> qualitative_label("C=CCn1c(SCc2cc([N+](=O)[O-])cc3c2OCOC3)nc2cc(C(=O)O)ccc2c1=O")
"active"
>>> qualitative_label("O=C(NCc1ccco1)c1ccc(Cn2c(=S)[nH]c3ccccc3c2=O)cc1")
"inactive"
>>> qualitative_label("Cc1ccc(C)c(CSc2nnc(C)n3c2cc2sccc23)c1")
"inactive"
>>> qualitative_label("COC(=O)c1ccc2nc(C3CCCCC3)c(Cc3ccccc3)n2c1")
"inactive"
>>> qualitative_label("Cc1noc(C)c1C(=O)N(CC(C)C)c1nc2ccccc2s1")
"inactive"
>>> qualitative_label("COc1cnc(-c2ccccc2)c(-c2ccccc2)n1")
"inactive"

Could you now look at the following compound, please?
Challenge: # outcome recorded in this test, key = N#CC1=C(N)OC2=C(CC/C2=C\c2ccccc2)C1c1ccccc1 (stereo not drawn)
Response given: inactive

====

# System: Rap guanine nucleotide exchange factor 3 (Homo sapiens)
# Protocol notes: Counterscreen qHTS for agonist of cAMP-regulated guanine nucleotide exchange factor 3 (EPAC1) (AID 1645889); note: % of control where 0% means no effect; nearly all actives have a fitted effect of over 40% in size
# Test parameters: EPAC1 Rap1B-BODIPY-GDP exchange, fluorescence; series mostly up to 154 µM
Inconclusive results are not listed. Active and inactive are the calls of the source. The call rests on the fitted dose curve; in most records, active means well fitted activation curve with a large enough effect; inconclusive means small, poorly fitted or top-dose-only effect, or another doubt; inactive means no such curve, though single readings can be large or run the other way.
Reported metric: activation

>>> data_value("COCCNc1nc(Oc2ccccc2)c2sccc2n1")
"inactive"
>>> data_value("Cc1ccc(S(=O)(=O)N2[C@@H](c3ccccc3)C(C(=O)O)=CC[C@H]2c2ccc(C(C)C)cc2)cc1")
"inactive"
>>> data_value("N#CC1=C2N=C(N)c3c(sc4c3CCCCC4)N2C2=C(C(=O)CCC2)C1c1ccccc1 (centres undefined)")
"inactive"
>>> data_value("O=C(CCC(=O)N1CCSc2ccccc21)NCc1cccc(Br)c1")
"10% [at 30.8 µM] (inactive)"
>>> data_value("COC(=O)c1ccc2nc(C3CCCCC3)c(Cc3ccccc3)n2c1")
"9.29% [at 30.8 µM] (inactive)"

Challenge: # value lookup — system Rap guanine nucleotide exchange factor 3 (Homo sapiens), readout activation, item COc1ccc(/C=C2\SC(=S)N(CCC(=O)N3CCCCC3CCO)C2=O)cc1 (centres undefined)
Response given: inactive

Challenge: Which activation is reported with Rap guanine nucleotide exchange factor 3 (Homo sapiens) for this entry: `COc1ccc(OC)c(/C=C/c2ccnc3ccccc23)c1` ?
Response given: 14.1% [at 30.8 µM] (inactive)

Challenge: # returns recorded activation (system: Rap guanine nucleotide exchange factor 3 (Homo sapiens)) for `O=C(c1ccco1)N(Cc1cccs1)c1ccc(F)cc1`
Response given: inactive

Challenge: Which measured activation belongs to `COc1ccccc1Cc1c(-c2ccco2)nc2cc(C)c(Br)c(C)n12` , tested on Rap guanine nucleotide exchange factor 3 (Homo sapiens)?
Response given: 13.6% [at 30.8 µM] (inactive)

====

# System: Rap guanine nucleotide exchange factor 3 (Homo sapiens)
# Protocol notes: Counterscreen qHTS for antagonist of cAMP-regulated guanine nucleotide exchange factor 3 (EPAC1) (AID 1645888);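 note: fluorescence loss as bound BODIPY-GDP is released from Rap1B; % of control where 0% means no effect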
# Test parameters: Rap1B-BODIPY-GDP nucleotide exchange, fluorescence; series mostly up to 154 µM
Results filed as inconclusive are left out. The source made the active and inactive calls. The call rests on the fitted dose curve; in most records, active means well fitted inhibition curve with a large enough effect; inconclusive means small, poorly fitted or top-dose-only effect; inactive means no such curve, though single readings can be large or run the other way.
Reported metric: activity change, negative = inhibition

>>> data_value("O=C1NC[C@H](Cc2ccc(O)cc2)N(C[C@@H]2CCCN2C[C@H](Cc2ccc(O)cc2)N2C[C@H](Cc3ccccc3)N(CC3CCCCCC3)C(=O)C2=O)C1=O")
"inactive"
>>> data_value("CCN(CC1COc2ccccc2O1)C(=O)CN1C(=O)NC(C)(c2ccc(C)cc2)C1=O (stereo not drawn)")
"inactive"
>>> data_value("CCc1nc2sc3ccccc3c(=O)c2c(=O)n1Cc1ccco1")
"inactive"
>>> data_value("O=C(/C=C/c1ccco1)Oc1cc(Br)cc(/C=N/NC(=O)c2ccccc2O)c1")
"inactive"

Challenge: Quick check: activity change, negative = inhibition on Rap guanine nucleotide exchange factor 3 (Homo sapiens), item Cc1ccc(C2(c3noc(CN(C)CC4CCCCO4)n3)CCCC2)cc1 (stereo not drawn) ?
Response given: -7.57% [at 30.8 µM] (inactive)

Challenge: Identify the measured activity change, negative = inhibition of `CCOC(=O)[C@H]1[C@H]2COc3ccc(C)cc3[C@@H]2N2C(=O)c3cc(F)c(F)cc3NC(=O)[C@@]12C` for Rap guanine nucleotide exchange factor 3 (Homo sapiens).
Response given: inactive

Challenge: # query: activity change, negative = inhibition | item `O=[N+]([O-])c1ccc(N(c2ccccc2)c2ccccc2)cc1` | system: Rap guanine nucleotide exchange factor 3 (Homo sapiens)
Response given: -24.8% [at 30.8 µM] (inactive)

====

# System: Guanidinoacetate N-methyltransferase (Homo sapiens) (UniProt Q14353)
# Protocol notes: Confirmatory Screen for Target Class Profiling of Small Molecule Inhibitors of Methyltransferases (AID 1745852); note: % is set by controls: 0 for no effect and ±100 for the full control effect
# Test parameters: MTase-Glo luminescence, SAH detection, recombinant enzyme; at 57.3 µM (top of the series) unless noted
Reported metric: activity change, negative = inhibition (% [at 85.7 µM])
Return type: number; implicit unit % [at 85.7 µM].

>>> data_value("COC(=O)[C@@H]1Cc2ncn(Cc3ccc(Cl)cc3)c2CN1CCCc1ccccc1")
2.15
>>> data_value("COc1ccc(CNc2cc3c(cn2)CN(C)CCN3)cc1OC")
1.57
>>> data_value("O=C(NCc1cccc(F)c1)c1nc2c(o1)CCN(CC1CCCC1)CC2")
18.3

Challenge: Requested read-out: activity change, negative = inhibition. Entry: `O=C(NCc1cccc(Cl)c1)c1cnc2c(c1)N(C(=O)Cc1ccc(O)cc1)CCC2`
Response given: -3.31

Challenge: Which measured activity change, negative = inhibition value corresponds to `COc1ccc(-c2cc3c(cn2)CN(CCc2ccccc2)CCN3)cc1OC` ?
Response given: 3.81

Challenge: I am curious: what activity change, negative = inhibition value has been reported for `N#Cc1cnc(N2CC3CCC(C2)N3CC(F)(F)F)s1` ?
Response given: -4.72

Challenge: What activity change, negative = inhibition value was documented for this compound, `c1ccc(CCN2CCNc3cc(NCc4cccnc4)ncc3C2)cc1` ?
Response given: 1.95

====

# Protocol notes: Cell Viability - BJ (AID 421);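 note: cells exposed to compound for 40 hours at 37 °C before readout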
# Test parameters: BJ fibroblast viability, qHTS
# Description: NIH Chemical Genomics Center [NCGC] NIH Molecular Libraries Screening Centers Network [MLSCN] National Institutes of Environmental Health Sciences [NIEHS] National Toxicology Program [NTP] We have developed a 1536-well cell-based assay for quantitative high throughput screening (qHTS) against a number of cell lines to determine in vitro cytotoxicity of small molecules. […] 8. Detection; Luminescence; Viewlux plate reader […]
Records with an inconclusive call do not appear. Activity calls are given as the source filed them. Calls come from the whole dose curve.
Log the outcome using a class from active, inactive

>>> qualitative_label("O=C1c2ccccc2C(=O)C1c1ccc2ccccc2n1")
"active"
>>> qualitative_label("O=C(O)c1ccccc1C(c1ccc(O)cc1)c1ccc(O)cc1")
"inactive"

Challenge: Record request — test call for `COC(=O)c1ccc(C)cc1`
Response given: inactive

====

# Protocol notes: qHTS assay for small molecule agonists of the antioxidant response element (ARE) signaling pathway measured by Nrf2-dependant transcriptional activity (AID 720636);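 note: HepG2 cells with an ARE-driven luciferase reporter; % of control where 0% means no effect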
# Test parameters: ARE-luc HepG2, Nrf2 luciferase reporter, 16 h; series mostly up to 92.4 µM
Records with an inconclusive call do not appear. Active and inactive are the calls of the source. Calls come from the whole dose curve; as a rule, active = well fitted activation curve with a large enough effect in the repeat runs; inconclusive = weak or mixed curves; inactive = flat fitted curve, though single readings scatter.
// classify into active, inactive

As a guide, the following entries are already answered.
>>> qualitative_label("NC1=NC(S)C2N=CN=C2N1 (stereo not drawn)")
"inactive"
>>> qualitative_label("O=C(O)c1ccc(O)cc1O")
"inactive"

Challenge: Short answer needed: outcome of this test for CCC(O)OC(O)CC (stereo not drawn) ?
Response given: inactive

Challenge: What outcome does the record of this test show for `O=C(O)CCCCCCCCC(=O)O` ?
Response given: inactive

Challenge: Outcome logged for S=C1NC=NC2N=CNC12 (stereo not drawn) in this assay:
Response given: inactive

Challenge: What is the recorded call for this molecule in the test? `CCCN(CCC)C(=O)SCC`
Response given: inactive

Challenge: Any idea what this test logged for `ClCCCl` ?
Response given: inactive

====

# System: Rap guanine nucleotide exchange factor 3 (Homo sapiens)
# Protocol notes: Counterscreen qHTS for antagonist of cAMP-regulated guanine nucleotide exchange factor 3 (EPAC1) (AID 1645888);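 note: fluorescence loss as bound BODIPY-GDP is released from Rap1B; % of control where 0% means no effect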
# Test parameters: Rap1B-BODIPY-GDP nucleotide exchange, fluorescence; series mostly up to 154 µM
Inconclusive results are not listed. Calls of active or inactive are those of the source. The call rests on the fitted dose curve; in most records, active means well fitted inhibition curve with a large enough effect; inconclusive means small, poorly fitted or top-dose-only effect; inactive means no such curve, though single readings can be large or run the other way.
Reported metric: activity change, negative = inhibition

Would you please look over these solved cases?
>>> data_value("CCC(C)n1c(SCC(=O)Nc2ccc3[nH]c(=O)[nH]c3c2)nc2ccccc2c1=O (stereo not drawn)")
"-15% [at 30.8 µM] (inactive)"
>>> data_value("CCOc1cc(/C=C2/NC(=O)NC2=O)cc(Br)c1OCc1ccc(C(=O)O)cc1")
"-1.26% [at 30.8 µM] (inactive)"
>>> data_value("COc1ccc(NC(=O)/C(C#N)=C\\c2ccc(OCc3ccc(C(=O)O)cc3)c(OC)c2)cc1")
"inactive"
>>> data_value("CCc1nc2c(OCc3ccc(C(=O)OC)cc3)cccn2c1N(C)C(=O)c1ccc(C)cc1")
"inactive"
>>> data_value("Cc1ccc(S(=O)(=O)N2CCN(C(=O)c3ccc4c(c3)OCO4)CC2)cc1")
"-2% [at 30.8 µM] (inactive)"

Challenge: I am curious: what activity change, negative = inhibition value has been reported for `COc1ccc(-c2nn3c(-c4cccc(C)c4)nnc3s2)cc1OC` ?
Response given: inactive

Challenge: activity change, negative = inhibition for Clc1ccc(C(c2ccccc2)c2c[nH]c3ccccc23)s1 (stereo not drawn) ?
Response given: inactive

Challenge: Entry Cc1ccc2c(c1)OC(=O)CC2c1ccccc1 (stereo not drawn) : reported activity change, negative = inhibition = ?
Response given: inactive

Challenge: Which activity change, negative = inhibition is listed for `CCc1ccc(NC(=O)CSc2nc(-c3ccccc3)c(C#N)c(=O)[nH]2)cc1` ?
Response given: inactive

Challenge: Could you tell me which activity change, negative = inhibition is on file for `COc1ccc(NC(=O)CSc2ccccc2)cc1S(=O)(=O)N1CCCCC1` ?
Response given: inactive

Challenge: Give its activity change, negative = inhibition value. Item: `Cc1c(C(=O)N2CCN(c3ncccn3)CC2)oc2c(Cl)cccc12`
Response given: inactive

Challenge: Field request: activity change, negative = inhibition | item: CC(/C=C/c1ccc(N(C)C)cc1)=N\N=C1\NC(=O)CC(C(=O)Nc2ccccc2)S1 (stereo not drawn)
Response given: -3.02% [at 30.8 µM] (inactive)

Challenge: Quick check: activity change, negative = inhibition of `Cc1ccc(S(=O)(=O)Nc2ccccc2C(=O)Nc2nc(-c3ccc(F)cc3)cs2)cc1` ?
Response given: inactive

Challenge: Request the reported activity change, negative = inhibition associated with `COc1ccc(Cl)cc1NC(=O)CN1CCc2ccccc21`
Response given: -6.37% [at 30.8 µM] (inactive)
